- studySystem: PSMA-expressing LNCaP cells (Homo sapiens)
- Construct: PSMA-expressing LNCaP cells; endogenous in cells; host or cells: LNCaP
- Sequence (Q04609 whole entry): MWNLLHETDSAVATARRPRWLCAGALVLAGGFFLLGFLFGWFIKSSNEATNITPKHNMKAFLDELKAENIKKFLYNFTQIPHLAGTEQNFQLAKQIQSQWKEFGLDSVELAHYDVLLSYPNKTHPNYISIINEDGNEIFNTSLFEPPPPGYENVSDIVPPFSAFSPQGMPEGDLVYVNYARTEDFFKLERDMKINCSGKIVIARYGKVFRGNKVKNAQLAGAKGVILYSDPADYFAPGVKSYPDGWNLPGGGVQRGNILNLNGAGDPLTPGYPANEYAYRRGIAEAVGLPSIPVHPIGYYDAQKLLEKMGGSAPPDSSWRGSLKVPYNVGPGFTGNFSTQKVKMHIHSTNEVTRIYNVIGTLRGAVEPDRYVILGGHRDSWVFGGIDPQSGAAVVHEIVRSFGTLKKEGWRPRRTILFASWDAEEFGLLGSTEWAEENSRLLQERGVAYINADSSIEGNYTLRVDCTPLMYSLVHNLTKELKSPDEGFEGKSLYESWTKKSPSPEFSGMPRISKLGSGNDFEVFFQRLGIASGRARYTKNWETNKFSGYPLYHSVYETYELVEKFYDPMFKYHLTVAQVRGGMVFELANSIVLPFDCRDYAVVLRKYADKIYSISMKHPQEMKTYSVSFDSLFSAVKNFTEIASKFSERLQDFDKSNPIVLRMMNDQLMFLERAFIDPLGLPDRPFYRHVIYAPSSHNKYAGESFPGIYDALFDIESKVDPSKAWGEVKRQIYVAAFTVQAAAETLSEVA
- assayInfo: Binding competition assay against 3H-PSMA-617 on LNCaP cells
- conditions: LNCaP cells; 10 nM 3H-PSMA-617; competing non-radiolabeled compound 100 nM; 2 h at 37° C.; triplicates
propertyName: remaining activity at 0.1 µM (%)

Worked examples follow.
COc1c(C[C@@H](NC(=O)[C@H]2CC[C@H](CN)CC2)C(=O)NCCCC[C@H](NC(=O)N[C@@H](CCC(=O)O)C(=O)O)C(=O)O)ccc2ccccc12	72
NC[C@H]1CC[C@H](C(=O)N[C@@H](CCCCNC(N)=O)C(=O)NCCCC[C@H](NC(=O)N[C@@H](CCC(=O)O)C(=O)O)C(=O)O)CC1	112
O=C(O)CC[C@H](NC(=O)N[C@@H](CCCCNC(=O)[C@@H](Cc1ccc2c(c1)CCCO2)NC(=O)[C@H]1CC[C@H](CNC(=O)CN2CCN(CC(=O)O)CCN(CC(=O)O)CCN(CC(=O)O)CC2)CC1)C(=O)O)C(=O)O	34
NC[C@H]1CC[C@H](C(=O)N[C@@H](Cc2cccc(S(F)(F)(F)(F)F)c2)C(=O)NCCCC[C@H](NC(=O)N[C@@H](CCC(=O)O)C(=O)O)C(=O)O)CC1	90
Nc1ccc(-c2ccn(CC(=O)N[C@@H](Cc3ccc4ccccc4c3)C(=O)NCCCC[C@H](NC(=O)N[C@@H](CCC(=O)O)C(=O)O)C(=O)O)n2)cc1	60

P = NCc1ccc(C(=O)N[C@@H](Cc2ccc3ccccc3n2)C(=O)NCCCC[C@H](NC(=O)N[C@@H](CCC(=O)O)C(=O)O)C(=O)O)nc1
Q = NCc1ccc(C(=O)N[C@@H](Cc2ccc3ccccc3c2)C(=O)NCCCC[C@H](NC(=O)N[C@@H](CCC(=O)O)C(=O)O)C(=O)O)cn1
R = NC[C@H]1CC[C@H](C(=O)N[C@H](Cc2ccc3cccnc3c2)C(=O)NCCCC[C@H](NC(=O)N[C@@H](CCC(=O)O)C(=O)O)C(=O)O)CC1
Query: Order the records by remaining activity at 0.1 µM, with each subsequent value no larger than the one before. Answer by listing the labels in the order asked for.
Result: R, P, Q
(R: 87%, P: 9%, Q: 6%)

1 = NCc1ccc(C(=O)N[C@@H](Cc2ccc3ccccc3c2)C(=O)NCCCC[C@H](NC(=O)N[C@H](CCC(=O)O)C(=O)O)C(=O)O)nc1
2 = COc1c(C[C@@H](NC(=O)[C@H]2CC[C@H](CNC(=O)CN3CCN(CC(=O)O)CCN(CC(=O)O)CCN(CC(=O)O)CC3)CC2)C(=O)NCCCC[C@H](NC(=O)N[C@@H](CCC(=O)O)C(=O)O)C(=O)O)ccc2ccccc12
Query: For 1 and 2 , which recorded remaining activity at 0.1 µM is lower? State your choice using its label.
Result: 2

---

- assayInfo: Biodistribution study in LNCaP tumor-bearing mice (Th227 counted in organs)
- Assay type: in vivo, SCID mice
- conditions: 0.25 h; 1500 kBq/kg
propertyName: Th-227 in bone (% ID Th-227/g organ)
# unit: % ID Th-227/g organ | format: bare number

Take a look at these entries with their results.
Cc1cc(C(=O)NCCN(CCCN(CCNC(=O)c2cc(C)n(CC(=O)O)c(=O)c2[O-])CCNC(=O)c2cc(C)n(CC(=O)NCC3CCC(C(=O)NC(Cc4cnc5ccccc5c4)C(=O)NCCCCC(NC(=O)NC(CCC(=O)O)C(=O)O)C(=O)O)CC3)c(=O)c2[O-])CCNC(=O)c2cc(C)n(CC(=O)NCC3CCC(C(=O)NC(Cc4cnc5ccccc5c4)C(=O)NCCCCC(NC(=O)NC(CCC(=O)O)C(=O)O)C(=O)O)CC3)c(=O)c2[O-])c([O-])c(=O)n1CC(=O)O.[227Th+4] (stereo not shown) [Example 22-C dimer-227Th]	2.50
O=C([O-])CN1CCN(CC(=O)[O-])CCN(CC(=O)NCc2ccc(C(=O)N[C@@H](Cc3ccc4ccccc4n3)C(=O)NCCCC[C@H](NC(=O)N[C@@H](CCC(=O)O)C(=O)O)C(=O)O)nc2)CCN(CC(=O)[O-])CC1.[227Th+4] [Example 34-B-227Th]	1.66

Query: Need Th-227 in bone of O=C([O-])CN1CCN(CC(=O)[O-])CCN(CC(=O)NCC2CCC(C(=O)NC(Cc3ccc4ccccc4c3)C(=O)NCCCCC(NC(=O)NC(CCC(=O)O)C(=O)O)C(=O)O)CC2)CCN(CC(=O)[O-])CC1.[227Th+4] [Example 1-B-D-227Th] , thanks.
Result: 1.70

Query: Try this compound too: O=C([O-])CN1CCN(CC(=O)[O-])CCN(CC(=O)NCC2CCC(C(=O)NC(Cc3ccc4ccccc4c3)C(=O)NCCCCC(NC(=O)NC(CCC(=O)O)C(=O)O)C(=O)O)CC2)CCN(CC(=O)[O-])CC1.[227Th+4] (stereo not shown) [Example 1-B-227Th]
Result: 2.42
